- System: BaF3
- EXPERIMENT: Growth of parental BaF3 cells, Cell Titer-Glo, 72 h
- Type: cell-based
- CONDITION DESCRIPTION: Mus musculus
EXPERIMENTAL READOUT: GI50

Sample answers from the record:
# SMILES STRING, GI50
measured = [
    ("CN1CCN(c2cncc(-c3cn(-c4cc(NC(=O)c5cccc(C(F)(F)F)n5)ccc4F)nn3)c2)CC1", "4.76 µM"),
    ("Cc1ccc(NC(=O)c2cncc(C(F)(F)F)c2)cc1-n1cc(-c2cncc(N3CCN(C)CC3)c2)cn1", "> 10 µM"),
    ("Cc1ccc(NC(=O)c2ccnc(C(F)(F)F)c2)cc1-n1cc(-c2cncc(N3CC4(COC4)C3)c2)cn1", "6.49 µM"),
    ("Cc1ccc(NC(=O)c2ccnc(C(F)(F)F)c2)cc1-n1cc(-c2cnccc2OCCN2CCOCC2)cn1", "~10 µM"),
    ("Cc1ccc(NC(=O)c2ccnc(C(F)(F)F)c2)cc1-n1cc(-c2cncc(N3CCN(C)CC3)c2)nn1", "> 10 µM"),
    ("Cc1ccc(NC(=O)c2cncc(C(F)(F)F)c2)cc1-n1cc(-c2cncc(N3CCN(C)CC3)c2)nn1", "5.07 µM"),
]

Could you now look at the following compound, please?
Challenge: Name the recorded GI50 for `Cc1ccc(NC(=O)c2cccc(F)n2)cc1-n1cc(-c2cncc(N3CC4(COC4)C3)c2)cn1` .
Response given: 9.85 µM

---

A set of compounds tested on BaF3-tel-PDGFRβ (stably expressing PDGFRβ kinase), with measured GI50:

Here is how some compounds turned out for GI50.
# SMILES STRING, GI50
records = [
    ("Cc1ccc(NC(=O)c2ccnc(C(F)(F)F)c2)cc1-n1cc(-c2cncc(N3CC4(COC4)C3)c2)cn1", "< 10 nM"),
    ("CN1CCN(c2cncc(-c3cn(-c4cc(NC(=O)c5cncc(C(F)(F)F)c5)ccc4F)nn3)c2)CC1", "< 10 nM"),
]

Challenge: Looking for the measured GI50 of `Cc1ccc(NC(=O)c2ccnc(C(F)(F)F)c2)cc1-n1cc(-c2cnccc2OCCN2CCOCC2)cn1` , can you help?
Response given: < 0.3 nM

Challenge: `Cc1ccc(NC(=O)c2cccc(C(F)(F)F)n2)cc1-n1cc(-c2cnccc2OCC2CCOCC2)cn1` , same question.
Response given: 5.5 nM

---

List of GI50 tested on BaF3.
Quick note: give the figure in µM, leave out the unit.

# COMPOUND, TESTED ON, UOM, GI50
rows = [
    ("CN1CCN(c2cncc(-c3cn(-c4cc(NC(=O)c5cccc(F)n5)ccc4F)nn3)c2)CC1 [Compound 29]", "BaF3", "µM", 2.84),
    ("Cc1ccc(NC(=O)c2cc(C(F)(F)F)ccn2)cc1-n1cc(-c2cncc(N3CC4(COC4)C3)c2)cn1 [Compound 35]", "BaF3", "µM", 5.84),
    ("Cc1ccc(NC(=O)c2ccnc(C(F)(F)F)c2)cc1-n1cc(-c2cncc(N3CCN(C)CC3)c2)cn1 [Compound 2]", "BaF3", "µM", 9.29),
    ("CN1CCN(c2cncc(-c3cn(-c4cc(NC(=O)c5cncc(C(F)(F)F)c5)ccc4F)nn3)c2)CC1 [Compound 26]", "BaF3", "µM", 4.74),
]

Challenge: Entry under review: Cc1ccc(NC(=O)c2cncc(C(F)(F)F)c2)cc1-n1cc(-c2cncc(N3CC4(COC4)C3)c2)nn1 [Compound 40] . Reported GI50?
Response given: 9.99

Challenge: What do we get for Cc1ccc(NC(=O)c2cccc(F)n2)cc1-n1cc(-c2cncc(N3CCN(C)CC3)c2)cn1 [Compound 14] ?
Response given: 8.4
